Assay: Effect on spontaneous locomotory activity in orally dosed ddY mouse measured for 1 hr
Format: ADME, organism-based
Conditions: in vivo, po
parameter: ID50 (mg/kg)
A number alone suffices; assume mg/kg.

Here are 3 compounds together with their reported answers.
smiles-structure	parameter	test-result
CC12CCN(CC1)Cc1c([nH]c3ccccc13)C2=O	ID50	16
CN1C(=O)c2[nH]c3ccccc3c2CN2CC[C@H]1C2	ID50	19
CN1C(=O)c2ccc(F)cc2CN2C[C@@H]1C1(CC1)C2	ID50	66

Input line: Would you mind telling me what ID50 value was observed for C/C=C1/CN2CC[C@H]1C(=O)c1[nH]c3ccccc3c1C2 ?
Output line: 69

###

Molecular target: Mu-type opioid receptor (Homo sapiens, UniProt P35372)
Sequence (P35372 whole entry): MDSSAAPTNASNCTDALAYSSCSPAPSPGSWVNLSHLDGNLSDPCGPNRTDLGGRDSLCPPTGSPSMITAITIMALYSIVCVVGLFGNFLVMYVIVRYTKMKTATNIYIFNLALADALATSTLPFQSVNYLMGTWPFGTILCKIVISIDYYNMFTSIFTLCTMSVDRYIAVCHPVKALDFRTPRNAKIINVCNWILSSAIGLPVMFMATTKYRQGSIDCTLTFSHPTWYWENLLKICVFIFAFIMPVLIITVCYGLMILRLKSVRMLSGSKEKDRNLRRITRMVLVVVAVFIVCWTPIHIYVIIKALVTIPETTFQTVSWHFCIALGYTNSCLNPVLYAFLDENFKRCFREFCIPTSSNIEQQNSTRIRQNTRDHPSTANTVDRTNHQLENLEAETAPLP
Assay: Displacement of [3H]diprenorphine from human MOR incubated for 1 hr
pEC50: −log10 of the molar value.
parameter: pEC50

Input line: Would you mind telling me what pEC50 value was observed for CN1C(=O)c2ccc(F)cc2CN2C[C@@H]1C1(CC1)C2 ?
Output line: < 4.00

###

We begin with a simple list: items and their reported logD.
Assay: 1-Octanol-PBS buffer distribution coefficient, log D of compound at pH 7.4
Format: physicochemical
Just the number.

Here are 9 compounds together with their reported answers.
compound	logD
O=C1c2ccccc2CN2CCCN1CC2	0.6
CCN1C(=O)c2ccccc2CN2CC[C@H]1C2	0.4
CN1C(=O)c2cccc(F)c2CN2C[C@@H]1C1(CC1)C2	0.9
CN1C(=O)c2cc(F)ccc2CN2C[C@@H]1C1(CC1)C2	0.9
CN1C(=O)c2ccccc2CN2CC[C@H]1C2	0.3
CN1C(=O)c2ccccc2CN2C[C@@H]1C1(CC1)C2	0.5
CN1C(=O)c2ccccc2CN2CCC[C@H]1C2	0.3
CN1C(=O)c2c(F)cccc2CN2C[C@@H]1C1(CC1)C2	1
CN1C(=O)c2ccc(F)cc2CN2C[C@@H]1C1(CC1)C2	0.9

Okay, now this compound:
Input line: Would you mind telling me what logD value was observed for CC1c2ccccc2C(=O)N(C)[C@H]2CCN1C2 (stereo not given in full) ?
Output line: 0.3

###

We begin with a simple list: items and their reported inhibition at 30 µM.
Target: hERG (KCNH2) (Homo sapiens, UniProt Q12809)
Sequence (Q12809 whole entry): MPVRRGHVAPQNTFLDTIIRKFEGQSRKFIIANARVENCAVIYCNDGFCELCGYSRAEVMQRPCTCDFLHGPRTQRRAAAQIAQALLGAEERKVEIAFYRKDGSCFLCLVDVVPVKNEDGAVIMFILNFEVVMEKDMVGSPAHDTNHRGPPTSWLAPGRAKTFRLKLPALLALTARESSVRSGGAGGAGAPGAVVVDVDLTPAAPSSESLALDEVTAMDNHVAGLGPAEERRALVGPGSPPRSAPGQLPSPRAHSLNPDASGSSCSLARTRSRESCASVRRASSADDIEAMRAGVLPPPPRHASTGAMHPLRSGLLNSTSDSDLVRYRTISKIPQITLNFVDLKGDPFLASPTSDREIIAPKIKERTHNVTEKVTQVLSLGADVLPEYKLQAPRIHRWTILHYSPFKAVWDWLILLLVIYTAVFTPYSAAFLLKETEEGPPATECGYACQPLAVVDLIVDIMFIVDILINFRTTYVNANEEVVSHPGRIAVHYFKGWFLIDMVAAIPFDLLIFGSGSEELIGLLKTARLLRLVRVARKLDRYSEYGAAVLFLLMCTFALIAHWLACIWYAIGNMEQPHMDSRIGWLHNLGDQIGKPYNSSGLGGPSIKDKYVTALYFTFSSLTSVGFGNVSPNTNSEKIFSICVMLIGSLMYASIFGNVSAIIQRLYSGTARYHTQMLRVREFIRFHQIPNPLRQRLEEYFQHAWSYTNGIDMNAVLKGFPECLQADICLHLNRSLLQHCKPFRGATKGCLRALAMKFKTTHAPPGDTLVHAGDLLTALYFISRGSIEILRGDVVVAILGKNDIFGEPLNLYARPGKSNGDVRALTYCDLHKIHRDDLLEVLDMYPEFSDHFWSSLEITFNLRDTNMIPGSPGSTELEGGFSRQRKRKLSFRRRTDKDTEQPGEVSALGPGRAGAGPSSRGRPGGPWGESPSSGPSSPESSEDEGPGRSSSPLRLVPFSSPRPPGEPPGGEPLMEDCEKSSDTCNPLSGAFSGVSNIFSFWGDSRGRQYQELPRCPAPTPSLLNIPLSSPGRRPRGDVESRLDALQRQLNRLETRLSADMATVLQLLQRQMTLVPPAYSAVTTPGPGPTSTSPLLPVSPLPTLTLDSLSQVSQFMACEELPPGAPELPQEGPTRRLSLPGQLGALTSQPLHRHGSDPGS
Assay: Inhibition of human ERG expressed in HEK293 cells at 30 uM at - 80 mV holding potential by whole cell patch clamp assay relative to control
Type: cell-based
Settings: HEK293 cells expressing human ERG
A number alone suffices; assume %.

smiles-structure	study-target	unit-descriptor	test-result
CN1C(=O)c2ccc(F)cc2CN2C[C@@H]1C1(CC1)C2	hERG (KCNH2) (Homo sapiens, UniProt Q12809)	%	2
CN1C(=O)c2cc(F)ccc2CN2C[C@@H]1C1(CC1)C2	hERG (KCNH2) (Homo sapiens, UniProt Q12809)	%	14
CN1C(=O)c2ccccc2CN2C[C@@H]1C1(CC1)C2	hERG (KCNH2) (Homo sapiens, UniProt Q12809)	%	15
CN1C(=O)c2cccc(F)c2CN2C[C@@H]1C1(CC1)C2	hERG (KCNH2) (Homo sapiens, UniProt Q12809)	%	0

Okay, now this compound:
Input line: Would you mind telling me what inhibition at 30 µM value was observed for CN1C(=O)c2c(F)cccc2CN2C[C@@H]1C1(CC1)C2 ?
Output line: 0

###

Assay: Half life in ddY mouse at 10 mg/kg, po by LC-MS/MS method
Assay type: ADME, organism-based
Conditions: in vivo
parameter: half-life (h)
A number alone suffices; assume h.

Input line: Would you mind telling me what half-life value was observed for CN1C(=O)c2ccc(F)cc2CN2C[C@@H]1C1(CC1)C2 ?
Output line: 1.9

###

Test: Cmax in ddY mouse at 10 mg/kg, po by LC-MS/MS method
Format: ADME, organism-based
Parameters: route oral, dose 10 mg/kg
Details: in vivo
We begin with a simple list: items and their reported Cmax.
A number alone suffices; assume nM.

smiles-structure	unit-descriptor	Cmax
CN1C(=O)c2ccc(F)cc2CN2C[C@@H]1C1(CC1)C2	nM	1470
CN1C(=O)c2ccccc2CN2CCC[C@H]1C2	nM	1970
CN1C(=O)c2ccccc2CN2CC[C@H]1C2	nM	3740

Okay, now this molecule:
Input line: Would you mind telling me what Cmax value was observed for CN1C(=O)c2ccccc2CN2C[C@@H]1C1(CC1)C2 ?
Output line: 5240
